tested on: M. tuberculosis Orphan; test: Spot culture growth inhibition assay (SPOTi), MIC; type: cell-based, Mycobacterium tuberculosis; details: Mycobacterium tuberculosis; multiresistant to isoniazid and rifampicin
As shown below, each of these compounds has a reported MIC value.

# Compound, Unit descriptor, MIC
records = [
    ("CC(/C=C/c1cc2cc(C)ccc2[nH]c1=O)=N\\NC(N)=S [Compound 11b]", "µM", 33.3),
    ("CC(/C=C/c1cc2ccc(Cl)cc2[nH]c1=O)=N\\NC(N)=S [Compound 11d]", "µM", 6.23),
    ("CC(/C=C/c1cc2cc(Br)ccc2[nH]c1=O)=N\\NC(N)=S [Compound 11e]", "µM", 27.4),
    ("CC(/C=C/c1cc2cccc(C)c2[nH]c1=O)=N\\NC(N)=S [Compound 11c]", "µM", 66.6),
]
